- Test summary: inhibitors of mutant huntingtin aggregation, primary screen, imaging, exon1htt(103Q)mCFP cells, high-content imaging (AID 483);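 note: compound exposure lasted 3 days before fixation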
- Condition summary: exon1htt(103Q)mCFP cell line, aggregate imaging, at 2 µM; stronger effect = higher value
Calls of active or inactive are those of the source.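 Rule for the calls: active = visual image review flags a hit and inhibition of aggregation exceeds 20%; inconclusive = visual hit but inhibition at or below 20%; inactive = no hit on visual image review.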
Experimental endpoint: inhibition of aggregation

Consider the following illustrative entries.
- Compound: "CC1Cn2c(nnc2-c2ccc(F)cc2)S1 (stereo unspecified)"
  Reported: "-26.8% (inactive)"
- Compound: "O=C(c1ccc(S(=O)(=O)N2CCOCC2)cc1)N(c1ccc(F)cc1)C1C=CS(=O)(=O)C1 (stereo unspecified)"
  Reported: "30.2% (inactive)"
- Compound: "CN(C(=O)COc1cc(=O)n(C)c2ccccc12)c1ccc(Br)cc1"
  Reported: "2.9% (inactive)"

Let us examine a further case.
stdin: Find the recorded inhibition of aggregation belonging to O=S(=O)(c1cccs1)N1CCN(Cc2nc3ccccc3s2)CC1 and report it.
stdout: -5.8% (inactive)
